experiment: RAM signaling pathway blockade in yeast – S. cerevisiae, Pdr1DBD-CYC8 efflux-inhibited sensitized strain, primary screen (AID 1298);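 also: 0% = DMSO untreated cells without growth and 100% = 10 µM 1-NA-PP1 full growth; higher means more yeast growth rescued from 5-FOA killing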; settings: S. cerevisiae cbk1-as DSE1-URA3 strain, 5-FOA growth OD615, 2 d; at 50 µM; hits give high values
The source made the active and inactive calls.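 The calls were made as follows: active = RAM network inhibition above 8.4% in each of two replicates, 3 SD over the compound average; inconclusive = above 8.4% inhibition in only one replicate; inactive = 8.4% inhibition or less in each replicate.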
ASSAY ENDPOINT: RAM network inhibition

Below are worked cases with known answers.
| COMPOUND | RAM network inhibition |
| --- | --- |
| Cc1c(Nc2nc3ccccc3nc2N2CCN(c3ccccc3)CC2)c(=O)n(-c2ccccc2)n1C | 5.41% (inactive) |
| CCc1ccc(NS(=O)(=O)c2cc(OC)ccc2OC)cc1 | 1.9% (inactive) |
| CCC1CCCCN1C(=O)CSc1nc2c(cnn2-c2ccc(C)cc2)c(=O)[nH]1 (configuration not stated) | 6.97% (inactive) |

Looking up `Cn1c(CCNC(=O)c2ccc(F)cc2)nc2ccccc21` , I found its RAM network inhibition recorded as 4.26% (inactive)

Looking up `O=C(NCc1ccco1)c1ccc(S(=O)(=O)c2cccc(S(=O)(=O)N3CCOCC3)c2)cc1` , I found its RAM network inhibition recorded as 3.8% (inactive)
